Hey, just so you know, these numbers are from patent US7868026B2.

- measured_on: CYP3A4 (Homo sapiens)
- experiment: Determination of compound Kiapp against recombinant CYP3A4 enzyme (BFC fluorescent substrate)
- Format: biochemical
- setup_conditions: Super. enzyme preparation, read-out: Kiapp (BFC, Super.)
parameter_measured: pKi
Scale for pKi: -log10 of concentration given in mol/L; no unit attached.

(Q) Output pKi of CCOc1cncc(NS(=O)(=O)c2ccccc2C(=O)NC(C)C2CC2)c1 (stereo not drawn)
(A) 7.69

(Q) Annotate the compound COc1cncc(NS(=O)(=O)c2ccccc2C(=O)N(C)CCc2ccccc2)c1 with its measured pKi.
(A) 7.72

(Q) Tell us which pKi value is on record for COc1cncc(NS(=O)(=O)c2ccccc2C(=O)NCc2c(F)cccc2F)c1
(A) 7.72

(Q) # return recorded pKi for entry Cc1cncc(NS(=O)(=O)c2ccccc2C(=O)N2CC(C)CC(C)C2)c1 (stereo not drawn)
(A) 7.64

(Q) Provide only the value of recorded pKi for COc1ccccc1CNC(=O)c1ccccc1S(=O)(=O)Nc1cncc(C)c1
(A) 7.83

(Q) Check the records and state pKi for CCOc1cncc(NS(=O)(=O)c2ccccc2C(=O)N2CCOCC2)c1
(A) 6.57

(Q) Entry CCCCOCCCNC(=O)c1ccccc1S(=O)(=O)Nc1cccnc1 needs its pKi filled in; supply it.
(A) 7.24

(Q) Check the records and state pKi for COc1cncc(NS(=O)(=O)c2ccccc2C(=O)NC2C3CC4CC(C3)CC2C4)c1 (stereo not drawn)
(A) 8.10

(Q) Quick one: give measured pKi for COc1cncc(NS(=O)(=O)c2ccccc2C(=O)NCc2c(Cl)cccc2Cl)c1
(A) 7.94

====

- measured_on: CYP3A4 (Homo sapiens, UniProt P08684)
- Sequence (P08684 whole entry): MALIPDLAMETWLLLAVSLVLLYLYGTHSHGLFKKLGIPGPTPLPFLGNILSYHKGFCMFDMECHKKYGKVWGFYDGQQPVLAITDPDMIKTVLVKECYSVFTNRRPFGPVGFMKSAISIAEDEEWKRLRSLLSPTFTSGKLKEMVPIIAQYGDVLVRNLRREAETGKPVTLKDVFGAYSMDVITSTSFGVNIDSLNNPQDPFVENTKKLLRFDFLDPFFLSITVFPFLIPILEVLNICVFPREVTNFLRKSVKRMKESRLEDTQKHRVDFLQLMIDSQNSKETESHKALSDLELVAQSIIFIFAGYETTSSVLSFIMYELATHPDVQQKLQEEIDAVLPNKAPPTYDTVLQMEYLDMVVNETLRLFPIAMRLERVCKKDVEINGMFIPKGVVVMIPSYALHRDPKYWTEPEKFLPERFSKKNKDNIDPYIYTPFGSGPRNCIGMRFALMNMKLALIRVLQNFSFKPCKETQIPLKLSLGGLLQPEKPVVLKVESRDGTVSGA
- experiment: Determination of IC50 against CYP3A4 by measurement of inhibition of midazolam metabolism (human liver microsomes, 1-hydroxymidazolam by LC-MS/MS)
- Type: biochemical
- Design: 0.1 mg/mL human liver microsomes
- setup_conditions: 2 μM midazolam, 0.1 mg/mL human liver microsomes
Would you mind telling me the reported pIC50 of each entry?
pIC50 here is simply -log10 of the concentration when that concentration is written in mol/L.

(Q) Specify reported pIC50 for the compound shown: CC(C)NC(=O)c1ccccc1S(=O)(=O)Nc1cccnc1
(A) 6.48

(Q) Consider the compound COc1cncc(NS(=O)(=O)c2ccccc2C(=O)NCc2ccc(C#N)cc2Cl)c1 . State its measured pIC50.
(A) 8.30

(Q) Output pIC50 of O=C(NC1CCCCC1)c1ccccc1S(=O)(=O)Nc1cccnc1
(A) 7.20

(Q) Identify pIC50 associated with the compound Cc1cncc(NS(=O)(=O)c2ccccc2C(=O)NCc2ccc(F)c(Cl)c2)c1
(A) 8.22

====

- measured_on: CYP3A4 (Homo sapiens)
- experiment: Determination of IC50 against CYP3A4 by measurement of inhibition of midazolam metabolism (human liver microsomes, 1-hydroxymidazolam by LC-MS/MS)
- Format: biochemical
- Design: 0.1 mg/mL human liver microsomes
- setup_conditions: 2 μM midazolam, 0.1 mg/mL human liver microsomes
parameter_measured: pIC50
Quick note: pIC50 means taking -log10 of the concentration in moles per liter.

(Q) Param request: pIC50 | system CYP3A4 (Homo sapiens) | item CC[C@H](C)NC(=O)c1ccccc1S(=O)(=O)Nc1cncc(OC)c1
(A) 7.26

(Q) Find pIC50 for CCOc1ccncc1NS(=O)(=O)c1ccccc1C(=O)N(C)CCOC on CYP3A4 (Homo sapiens) and write it down.
(A) 6.89

(Q) Lab note: record pIC50 of COc1cncc(NS(=O)(=O)c2ccccc2C(=O)NC(C)C(C)C)c1 (centres unmarked) tested on CYP3A4 (Homo sapiens).
(A) 7.72

(Q) Please report the measured pIC50 for Cc1ccncc1NS(=O)(=O)c1ccccc1C(=O)NCCC(C)C tested on CYP3A4 (Homo sapiens).
(A) 7.35

(Q) Quote pIC50 with test system CYP3A4 (Homo sapiens) for COc1cncc(NS(=O)(=O)c2ccc(OCCCN(C)C)cc2C(=O)N(C)C(C)C)c1
(A) 6.97
